assay: In vitro biodegradation in Seronorm (release of Isopaque analysed by HPLC); type: in vitro ADME; conditions: 0.5 mg/ml, pH 7.4, 37° C., 2 hour incubation, read-out: substance hydrolysed
measurement type: metabolised at 2 h

1) CC(=O)Nc1c(I)c(C(=O)OC(C)OC(C)=O)c(I)c(N(C)C(C)=O)c1I (stereo not shown) [Example 4] = 29%

---

experiment: In vitro biodegradation in Seronorm (release of Isopaque analysed by HPLC); assay type: in vitro ADME; conditions: 0.5 mg/ml, pH 7.4, 37° C., 24 hours, read-out: substance hydrolysed
measurement type: metabolised at 24 h (%)

1. CC(=O)Nc1c(I)c(C(=O)OC(C)OC(=O)C(C)(C)C)c(I)c(N(C)C(C)=O)c1I (stereo not shown) = 4.1

---

assay: In vitro biodegradation in Seronorm (release of Isopaque analysed by HPLC); type: in vitro ADME; details: 5 mg/ml, pH 7.4, 37° C., 6 hours, read-out: substance hydrolysed
measurement type: metabolised at 6 h

1) CC(=O)Nc1c(I)c(C(=O)OCOC(=O)C(C)(C)C)c(I)c(N(C)C(C)=O)c1I = > 50%
